Reference source: the supplement of paper PMC9512659

- Test system: Mycobacterium tuberculosis Erdman (pMV306hsp+LuxG13)
- assay remarks: AUC25, normalised area under the dose-response curve up to IC25 (normalised AUC (unitless)); higher = more potent
- measurement setup: growth medium: hypoxic dormancy (butyrate + nitrate), then recovery; time point: terminal time point
reported endpoint: AUC25

- CC[C@@H](CO)NCCN[C@@H](CC)CO [ethambutol] + CC(C)=CCC/C(C)=C/CNCCNC1C2CC3CC(C2)CC1C3 [SQ109]: 0.0578
- CC(C)/N=c1\cc2n(-c3ccc(Cl)cc3)c3ccccc3nc-2cc1Nc1ccc(Cl)cc1 [clofazimine] + CC(C)=CCC/C(C)=C/CNCCNC1C2CC3CC(C2)CC1C3 [SQ109]: 0.0554
- CC[C@@H](CO)NCCN[C@@H](CC)CO [ethambutol] + CC(=O)NC[C@H]1CN(c2ccc(N3CCSCC3)c(F)c2)C(=O)O1 [sutezolid]: 0.0966
- CC(C)/N=c1\cc2n(-c3ccc(Cl)cc3)c3ccccc3nc-2cc1Nc1ccc(Cl)cc1 [clofazimine] + CC(=O)NC[C@H]1CN(c2ccc(N3CCSCC3)c(F)c2)C(=O)O1 [sutezolid]: 0.0291
- CO[C@H]1/C=C/O[C@@]2(C)Oc3c(C)c(O)c4c(O)c(c(/C=N/N5CCN(C6CCCC6)CC5)c(O)c4c3C2=O)NC(=O)/C(C)=C\C=C\[C@H](C)[C@H](O)[C@@H](C)[C@@H](O)[C@@H](C)[C@H](OC(C)=O)[C@@H]1C [rifapentine] + CC(=O)NC[C@H]1CN(c2ccc(N3CCSCC3)c(F)c2)C(=O)O1 [sutezolid]: 0.0473
- COc1nc2ccc(Br)cc2cc1[C@@H](c1ccccc1)[C@@](O)(CCN(C)C)c1cccc2ccccc12 [bedaquiline] + CC(=O)NC[C@H]1CN(c2ccc(N3CCSCC3)c(F)c2)C(=O)O1 [sutezolid]: 0.0431
- CO[C@H]1/C=C/O[C@@]2(C)Oc3c(C)c(O)c4c(O)c(c(/C=N/N5CCN(C)CC5)c(O)c4c3C2=O)NC(=O)/C(C)=C\C=C\[C@H](C)[C@H](O)[C@@H](C)[C@@H](O)[C@@H](C)[C@H](OC(C)=O)[C@@H]1C [rifampicin] + CC(=O)NC[C@H]1CN(c2ccc(N3CCSCC3)c(F)c2)C(=O)O1 [sutezolid]: 0.06
- NNC(=O)c1ccncc1 [isoniazid] + CC(C)=CCC/C(C)=C/CNCCNC1C2CC3CC(C2)CC1C3 [SQ109]: 0.0403
- COc1c(N2C[C@@H]3CCCN[C@@H]3C2)c(F)cc2c(=O)c(C(=O)O)cn(C3CC3)c12 [moxifloxacin] + CC(=O)NC[C@H]1CN(c2ccc(N3CCSCC3)c(F)c2)C(=O)O1 [sutezolid]: 0.0478

====

- System: Mycobacterium tuberculosis Erdman (pMV306hsp+LuxG13)
- assay remarks: GRinf, normalised growth-rate inhibition at infinite dose (GR value (unitless, negative = killing)); higher = less potent
- measurement setup: growth medium: cholesterol 0.2 mM (cholesterol-high); time point: terminal time point
reported endpoint: GRinf

- COc1nc2ccc(Br)cc2cc1[C@@H](c1ccccc1)[C@@](O)(CCN(C)C)c1cccc2ccccc12 [bedaquiline] + CC(=O)NC[C@H]1CN(c2ccc(N3CCSCC3)c(F)c2)C(=O)O1 [sutezolid]: -0.792
- CO[C@H]1/C=C/O[C@@]2(C)Oc3c(C)c(O)c4c(O)c(c(/C=N/N5CCN(C6CCCC6)CC5)c(O)c4c3C2=O)NC(=O)/C(C)=C\C=C\[C@H](C)[C@H](O)[C@@H](C)[C@@H](O)[C@@H](C)[C@H](OC(C)=O)[C@@H]1C [rifapentine] + CC(=O)NC[C@H]1CN(c2ccc(N3CCSCC3)c(F)c2)C(=O)O1: -0.769
- CO[C@H]1/C=C/O[C@@]2(C)Oc3c(C)c(O)c4c(O)c(c(/C=N/N5CCN(C)CC5)c(O)c4c3C2=O)NC(=O)/C(C)=C\C=C\[C@H](C)[C@H](O)[C@@H](C)[C@@H](O)[C@@H](C)[C@H](OC(C)=O)[C@@H]1C [rifampicin] + CC(=O)NC[C@H]1CN(c2ccc(N3CCSCC3)c(F)c2)C(=O)O1 [sutezolid]: -0.728
- CC[C@@H](CO)NCCN[C@@H](CC)CO [ethambutol] + CC(C)=CCC/C(C)=C/CNCCNC1C2CC3CC(C2)CC1C3 [SQ109]: -0.86
- NC(=O)c1cnccn1 [pyrazinamide] + CC(C)=CCC/C(C)=C/CNCCNC1C2CC3CC(C2)CC1C3 [SQ109]: -0.789
